Sourced from patent US6020328A

Test system: rabbits
Assay: McGinty test (agonist, test compound alone)
Format: in vivo, rabbit
Details: dose 30 micrograms
Measure: McPhail Index, McGinty Assay (Agonist)

INSERT INTO assay_data (compound, target_under_test, result) VALUES
  ('CC(=O)O[C@]1(C(C)=O)CC[C@H]2[C@@H]3CCC4=CC(=O)CCC4=C3[C@@H](c3ccc(N4CCCC4)cc3)C[C@@]21C [I 4-(N-pyrrolidino) H O H --O--CO--CH3 H]', 'rabbits', '0 +/- 0'),
  ('CC(=O)O[C@]1(C(C)=O)CC[C@H]2[C@@H]3CCC4=CC(=O)CCC4=C3[C@@H](c3ccc4c(c3)CCN4C)C[C@@]21C', 'rabbits', '0.2 +/- 0.1'),
  ('CC(=O)O[C@]1(C(C)=O)CC[C@H]2[C@@H]3CCC4=CC(=O)CCC4=C3[C@@H](c3ccc(N4CCCCC4)cc3)C[C@@]21C [I 4-(N-piperidino) H O H --O--CO--CH3 H]', 'rabbits', '0.2 +/- 0.1'),
  ('CC(=O)[C@@]1(OC(=O)c2ccccc2)CC[C@H]2[C@@H]3CCC4=CC(=O)CCC4=C3[C@@H](c3ccc(N(C)C)cc3)C[C@@]21C [I 4-Me2 N H O H --O--CO--C6 H5 H]', 'rabbits', '0 +/- 0');

Now, please, on to the next compound.
*Q* Item COc1ccc([C@H]2C[C@@]3(C)[C@@H](CC[C@]3(OC(C)=O)C(C)=O)[C@@H]3CCC4=CC(=O)CCC4=C32)cc1 [I 4-CH3 O H O H --O--CO--CH3 H] : provide McPhail Index, McGinty Assay (Agonist)
*A* 1.5 +/- 0.7

----------
Molecular target: androgen receptor (Rattus norvegicus, UniProt P15207)
Sequence (P15207 whole entry S389L): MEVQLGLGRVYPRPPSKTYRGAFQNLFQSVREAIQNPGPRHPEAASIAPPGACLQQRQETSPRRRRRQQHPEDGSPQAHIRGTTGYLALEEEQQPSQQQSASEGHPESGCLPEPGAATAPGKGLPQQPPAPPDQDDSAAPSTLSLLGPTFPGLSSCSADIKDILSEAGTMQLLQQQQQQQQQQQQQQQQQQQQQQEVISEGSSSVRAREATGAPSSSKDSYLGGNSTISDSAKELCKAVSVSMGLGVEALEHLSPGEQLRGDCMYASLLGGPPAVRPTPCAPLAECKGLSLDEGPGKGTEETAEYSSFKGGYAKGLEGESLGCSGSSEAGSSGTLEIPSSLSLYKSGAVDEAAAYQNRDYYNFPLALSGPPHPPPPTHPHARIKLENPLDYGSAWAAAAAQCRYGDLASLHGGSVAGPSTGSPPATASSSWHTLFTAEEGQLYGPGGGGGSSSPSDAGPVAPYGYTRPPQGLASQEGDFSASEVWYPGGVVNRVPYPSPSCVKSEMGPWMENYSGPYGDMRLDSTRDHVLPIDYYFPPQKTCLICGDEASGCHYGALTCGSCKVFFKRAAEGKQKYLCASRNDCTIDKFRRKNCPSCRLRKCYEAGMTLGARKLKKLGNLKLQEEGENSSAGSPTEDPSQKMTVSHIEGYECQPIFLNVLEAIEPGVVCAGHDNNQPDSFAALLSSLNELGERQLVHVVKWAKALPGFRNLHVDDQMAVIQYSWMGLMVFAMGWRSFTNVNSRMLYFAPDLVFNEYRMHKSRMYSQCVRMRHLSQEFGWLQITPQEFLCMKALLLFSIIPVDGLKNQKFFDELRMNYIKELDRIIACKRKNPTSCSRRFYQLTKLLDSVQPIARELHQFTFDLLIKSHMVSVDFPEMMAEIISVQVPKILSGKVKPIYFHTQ
Measure: IC50 (nM)
Answer with a number only, understood to be in nM.

*Q* Look up and report measured IC50 (androgen receptor (Rattus norvegicus, UniProt P15207)) for the following molecule: CN(C)c1ccc([C@H]2C[C@@]3(C)[C@@H](CC[C@@]34OC(=O)CCC4=O)[C@@H]3CCC4=CC(=O)CCC4=C32)cc1
*A* 90

----------
Molecular target: progestin receptor (hPR)
Experiment: progestin receptor binding
Details: cytosol from human T-47D breast cells; [3H]-R5020; read-out: Receptor Binding Affinity hPR IC50
pIC50 values by entry
The scale used: pIC50 is minus the common logarithm of the concentration in molar units.

Previously resolved entries follow.
INSERT INTO assay_data (entry_smiles, measure, recorded_number) VALUES
  ('COC[C@]1(C(C)=O)CC[C@H]2[C@@H]3CCC4=CC(=O)CCC4=C3[C@@H](c3ccc(N(C)C)cc3)C[C@@]21C', 'pIC50', 8.49),
  ('C#C[C@]1(C(C)=O)CC[C@H]2[C@@H]3CCC4=CC(=O)CCC4=C3[C@@H](c3ccc(N(C)C)cc3)C[C@@]21C', 'pIC50', 8.60),
  ('CC(=O)O[C@]1(C(C)=O)CC[C@H]2[C@@H]3CCC4=CC(=O)CCC4=C3[C@@H](c3ccc4c(ccn4C)c3)C[C@@]21C', 'pIC50', 8.62),
  ('CCC(=O)O[C@]1(C(C)=O)CC[C@H]2[C@@H]3CCC4=CC(=O)CCC4=C3[C@@H](c3ccc(N(C)C)cc3)C[C@@]21C', 'pIC50', 8.89);

Kindly review the next compound as well.
*Q* Look up pIC50 of COC(=O)[C@]1(C(C)=O)CC[C@H]2[C@@H]3CCC4=CC(=O)CCC4=C3[C@@H](c3ccc(N(C)C)cc3)C[C@@]21C and report it.
*A* 9.15

----------
System: rabbits
Assay: McGinty test (agonist, test compound alone)
Format: in vivo, rabbit
Settings: dose 30 micrograms
# Lookup of reported McPhail Index, McGinty Assay (Agonist) keyed by entry

Examples with answers:
INSERT INTO measurements (entry_smiles, measure, result) VALUES
  ('CCC(=O)O[C@]1(C(C)=O)CC[C@H]2[C@@H]3CCC4=CC(=O)CCC4=C3[C@@H](c3ccc(N(C)C)cc3)C[C@@]21C', 'McPhail Index, McGinty Assay (Agonist)', '0 +/- 0'),
  ('CC(=O)O[C@]1(C(C)=O)CC[C@H]2[C@@H]3CCC4=CC(=O)CCC4=C3[C@@H](c3ccc(N(C)C)nc3)C[C@@]21C', 'McPhail Index, McGinty Assay (Agonist)', '0 +/- 0'),
  ('CC(=O)O[C@]1(C(C)=O)CC[C@H]2[C@@H]3CCC4=CC(=O)CCC4=C3[C@@H](c3ccc4c(ccn4C)c3)C[C@@]21C', 'McPhail Index, McGinty Assay (Agonist)', '0 +/- 0'),
  ('COC(=O)[C@]1(C(C)=O)CC[C@H]2[C@@H]3CCC4=CC(=O)CCC4=C3[C@@H](c3ccc(N(C)C)cc3)C[C@@]21C', 'McPhail Index, McGinty Assay (Agonist)', '0.07 +/- 0.07'),
  ('CCC(=O)O[C@]1(C(C)=O)CC[C@H]2[C@@H]3CCC4=CC(=O)CCC4=C3[C@@H](c3ccc(N4CCCC4)cc3)C[C@@]21C', 'McPhail Index, McGinty Assay (Agonist)', '0.1 +/- 0.1'),
  ('CC(=O)[C@@]1(CO)CC[C@H]2[C@@H]3CCC4=CC(=O)CCC4=C3[C@@H](c3ccc(N(C)C)cc3)C[C@@]21C', 'McPhail Index, McGinty Assay (Agonist)', '0 +/- 0');

*Q* Identify the reported McPhail Index, McGinty Assay (Agonist) for the following entry. CCC(=O)O[C@]1(C(C)=O)CC[C@H]2[C@@H]3CCC4=CC(=O)CCC4=C3[C@@H](c3ccc(N4CCCCC4)cc3)C[C@@]21C
*A* 0 +/- 0

*Q* Look up and state reported McPhail Index, McGinty Assay (Agonist) for C#C[C@]1(C(C)=O)CC[C@H]2[C@@H]3CCC4=CC(=O)CCC4=C3[C@@H](c3ccc(N(C)C)cc3)C[C@@]21C
*A* 0.2 +/- 0.2

*Q* Answer with the recorded McPhail Index, McGinty Assay (Agonist) for the molecule listed here: CC(=O)OC[C@]1(C(C)=O)CC[C@H]2[C@@H]3CCC4=CC(=O)CCC4=C3[C@@H](c3ccc(N(C)C)cc3)C[C@@]21C
*A* 1.0 +/- 0.1

*Q* Give reported McPhail Index, McGinty Assay (Agonist) value for COC[C@]1(C(C)=O)CC[C@H]2[C@@H]3CCC4=CC(=O)CCC4=C3[C@@H](c3ccc(N(C)C)cc3)C[C@@]21C
*A* 1.3 +/- 0.8

*Q* Tell us which McPhail Index, McGinty Assay (Agonist) value is on record for CN(C)c1ccc([C@H]2C[C@@]3(C)[C@@H](CC[C@@]34OC(=O)CCC4=O)[C@@H]3CCC4=CC(=O)CCC4=C32)cc1
*A* 0

*Q* Give a short answer stating reported McPhail Index, McGinty Assay (Agonist) for CCC(=O)O[C@]1(C(C)=O)CC[C@H]2[C@@H]3CCC4=CC(=O)CCC4=C3[C@@H](c3ccc4c(ccn4C)c3)C[C@@]21C .
*A* 0 +/- 0
